- experimentalSystem: T1, human plasma kallikrein (human, UniProt P03952 20-390; P03952 391-638)
- T1 construct: also called pKal; Human pKal
- T1 sequence (P03952 20-390, chain 1 of 2): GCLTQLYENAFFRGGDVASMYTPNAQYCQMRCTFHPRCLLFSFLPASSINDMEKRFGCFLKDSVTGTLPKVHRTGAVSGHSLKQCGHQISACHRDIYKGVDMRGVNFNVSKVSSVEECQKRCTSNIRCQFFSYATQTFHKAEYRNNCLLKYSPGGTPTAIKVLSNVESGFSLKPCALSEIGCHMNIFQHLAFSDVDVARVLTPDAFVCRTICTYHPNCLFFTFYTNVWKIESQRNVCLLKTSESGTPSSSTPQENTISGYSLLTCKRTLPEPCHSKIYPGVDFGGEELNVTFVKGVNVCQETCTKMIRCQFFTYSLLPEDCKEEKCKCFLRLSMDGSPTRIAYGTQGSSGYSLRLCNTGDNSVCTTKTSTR
- T1 sequence (P03952 391-638, chain 2 of 2): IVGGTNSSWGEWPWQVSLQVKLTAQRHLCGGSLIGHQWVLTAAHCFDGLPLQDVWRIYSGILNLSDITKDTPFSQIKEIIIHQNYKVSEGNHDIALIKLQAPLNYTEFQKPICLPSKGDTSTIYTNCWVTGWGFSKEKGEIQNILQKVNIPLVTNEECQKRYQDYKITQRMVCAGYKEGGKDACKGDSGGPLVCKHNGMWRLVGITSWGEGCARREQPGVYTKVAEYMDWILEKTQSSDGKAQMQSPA
- testDetails: ELISA, biotinylated pKal signal over streptavidin background
quantity: ELISA (T/B)

{"binder": "M76-G06 (Fab, V domains shown, HC as printed runs into CH1) VH: EVQLLESGGGLVQPGGSLRLSCAASGFTFSGYIMHWVRQAPGKGLEWVSWIYPSGGWTEYADSVKGRFTISRDNSKNTLYLQMNSLRAEDTAVYYCARDAPGVGAIDYWGQGTLVTVSS VL: DIQMTQSPSSLSASVRDRVTITCRASQSISTYLNWYQQKPGEAPKLLVFAASSLQSGVPSRFSGSGSGTDFTLSISSLQPEDFATYYCQQSYSTPHTFGQGAKVEIK", "quantitativeResult": 11.8}
{"binder": "M152-A12 (Fab, V domains shown, HC as printed runs into CH1) VH: EVQLLESGGGLVQPGGSLRLSCAASGFTFSPYFMGWVRQAPGKGLEWVSGIGPSGGSTTYADSVKGRFTISRDNSKNTLYLQMNSLRAEDTAVYYCAREGPPYSSGWYRGLRQYHFDYWGQGTLVTVSS VL: DIQMTQSPSSLSASVGDRVTITCRASQSISSYLSWYQQRPGKAPNLLIYAASSLQSGVPSRFSGSGSGTDFTLTISSLQPEDFATYYCQQSISIPRTFGQGTKVEVK", "quantitativeResult": 19}
{"binder": "M6-A06 (Fab, V domains shown, HC as printed runs into CH1) VH: EVQLLESGGGLVQPGGSLRLSCAASGFTFSLYQMTWVRQAPGKGLEWVSGIWPSGGFTDYADSVKGRFTISRDNSKNTLYLQMNSLRAEDTAVYYCARVSTAVADNDYWGQGTLVTVSS VL: DIQMTQSPSSLSASVGDSVTISCRASQSISMYLNWYQHKPGKAPKLLIYGTSSLQSGVPSRFSGSGPGGTDFTLTISSLQPEDFATYYCQQSYSAPWTFGQGTKVEIK", "quantitativeResult": 11.7}
{"binder": "M10-F09 (Fab, V domains shown, HC as printed runs into CH1) VH: EVQLLESGGGLVQPGGSLRLSCAASGFTFSNYDMMWVRQAPGKGLEWVSYISPSGGFTRYADSVKGRFTISRDNSKNTLYLQMNSLRAEDTATYYCAKDIYYYNWGPSHYFDSWGQGTLVTVSS VL: DIQMTQSPSSLSASVGDRVTITCRASQTIDDDLIWYQQKPGRAPKLLIYAASSLQSGVPSRFSGSGSGTDFTLTITSLQPEDFATYYCQQSYNIPRTFGQGTKLESK", "quantitativeResult": 4.8}
{"binder": "M9-F10 (Fab, V domains shown, HC as printed runs into CH1) VH: EVQLLESGGGLVQPGGSLRLSCAASGFTFSDYDMEWVRQAPGKGLEWVSSISPSGGSTIYADSVKGRFTISRDNSKNTLYLQMNSLRAEDTAVYYCARQGLLTAFDIWGQGTMVTVSS VL: DIQMTQSPSSLSASVGDRVTITCRASQSINTYLNWYQQKPGKAPKVLIHAASTLESGVPSRFSGSGSGTDFTLTISSLQPEDFATYYCQQSYSTPYTFGQGTKLEVR", "quantitativeResult": 8.4}

Sourced from patent US20260184815A1
